# Test system: K-562
# protocol.summary: NCI-60 five-dose SRB assay
# Type: cell-based
# experimental.parameters: Homo sapiens, K562; K-562, Leukemia, five-dose test
# Description: The anticancer screening of target compounds over a full panel of 60 human cancer cell lines was carried out using Sulforhodamine B (SRB) assay at the National Cancer Institute (NCI), Bethesda, Maryland, USA, employing the standard protocol.
readout: GI50 (µM)
// note: answer is a bare numeric in µM

Endpoint output: GI50 of COc1cccc2nc(Nc3ccc(F)c(NC(=O)c4ccc(CN5CCN(C)CC5)c(C(F)(F)F)c4)c3)ccc12 [Compound 15a] . Value?
3.59

Endpoint output: GI50 of COc1cccc2nc(Nc3cccc(NC(=O)c4ccc(CN5CCN(C)CC5)c(C(F)(F)F)c4)c3)ccc12 [Compound 14a] . Value?
2.7

Endpoint output: GI50 of CN1CCN(Cc2ccc(C(=O)Nc3cccc(Nc4ccc5c(O)cccc5n4)c3)cc2C(F)(F)F)CC1 [Compound 17a] . Value?
2.42

Endpoint output: GI50 of COc1cccc2nc(Nc3cccc(NC(=O)c4ccc(CN5CCCN(C)CC5)c(C(F)(F)F)c4)c3)ccc12 [Compound 14b] . Value?
1.23

###

# System: MCF7
# protocol.summary: NCI-60 five-dose SRB assay
# Format: cell-based
# experimental.parameters: Homo sapiens; MCF7, Breast cancer, five-dose test
Could you please report measured GI50 for the items listed next?

Endpoint output: GI50 of COc1cccc2nc(Nc3cccc(NC(=O)c4ccc(CN5CCN(C)CC5)c(C(F)(F)F)c4)c3)ccc12 [Compound 14a] . Value?
1.57 µM

Endpoint output: GI50 of CN1CCCN(Cc2ccc(C(=O)Nc3cccc(Nc4ccc5cc(O)ccc5n4)c3)cc2C(F)(F)F)CC1 [Compound 18b] . Value?
9.83 µM

Endpoint output: GI50 of CN1CCN(Cc2ccc(C(=O)Nc3cccc(Nc4ccc5cc(O)ccc5n4)c3)cc2C(F)(F)F)CC1 [Compound 18a] . Value?
2.46 µM

Endpoint output: GI50 of CCN1CCN(Cc2ccc(C(=O)Nc3cccc(Nc4ccc5c(OC)cccc5n4)c3)cc2C(F)(F)F)CC1 [Compound 14c] . Value?
1.5 µM

Endpoint output: GI50 of COc1cccc2nc(Nc3ccc(F)c(NC(=O)c4ccc(CN5CCN(C)CC5)c(C(F)(F)F)c4)c3)ccc12 [Compound 15a] . Value?
12.3 µM

Endpoint output: GI50 of CN1CCCN(Cc2ccc(C(=O)Nc3cccc(Nc4ccc5c(O)cccc5n4)c3)cc2C(F)(F)F)CC1 [Compound 17b] . Value?
1.68 µM

Endpoint output: GI50 of COc1ccc2nc(Nc3cccc(NC(=O)c4ccc(CN5CCN(C)CC5)c(C(F)(F)F)c4)c3)ccc2c1 [Compound 16a] . Value?
1.37 µM

Endpoint output: GI50 of CN1CCN(Cc2ccc(C(=O)Nc3cccc(Nc4ccc5c(O)cccc5n4)c3)cc2C(F)(F)F)CC1 [Compound 17a] . Value?
1.74 µM

Endpoint output: GI50 of COc1cccc2nc(Nc3cccc(NC(=O)c4ccc(CN5CCCN(C)CC5)c(C(F)(F)F)c4)c3)ccc12 [Compound 14b] . Value?
1.59 µM

###

# System: HCT-116
# protocol.summary: NCI-60 five-dose SRB assay
# Assay type: cell-based
# experimental.parameters: Homo sapiens; HCT-116, Colon cancer, five-dose test
Could you please report measured GI50 for the items listed next?
// note: answer is a bare numeric in nM

// map CN1CCCN(Cc2ccc(C(=O)Nc3cccc(Nc4ccc5c(O)cccc5n4)c3)cc2C(F)(F)F)CC1 [Compound 17b] to recorded GI50 (system: HCT-116)
1620

// map COc1cccc2nc(Nc3cccc(NC(=O)c4ccc(CN5CCN(C)CC5)c(C(F)(F)F)c4)c3)ccc12 [Compound 14a] to recorded GI50 (system: HCT-116)
1820

// map COc1cccc2nc(Nc3ccc(F)c(NC(=O)c4ccc(CN5CCN(C)CC5)c(C(F)(F)F)c4)c3)ccc12 [Compound 15a] to recorded GI50 (system: HCT-116)
8750

// map COc1ccc2nc(Nc3cccc(NC(=O)c4ccc(CN5CCN(C)CC5)c(C(F)(F)F)c4)c3)ccc2c1 [Compound 16a] to recorded GI50 (system: HCT-116)
2410

// map CCN1CCN(Cc2ccc(C(=O)Nc3cccc(Nc4ccc5c(OC)cccc5n4)c3)cc2C(F)(F)F)CC1 [Compound 14c] to recorded GI50 (system: HCT-116)
1450

// map COc1cccc2nc(Nc3cccc(NC(=O)c4ccc(CN5CCCN(C)CC5)c(C(F)(F)F)c4)c3)ccc12 [Compound 14b] to recorded GI50 (system: HCT-116)
1670

// map CN1CCN(Cc2ccc(C(=O)Nc3cccc(Nc4ccc5c(O)cccc5n4)c3)cc2C(F)(F)F)CC1 [Compound 17a] to recorded GI50 (system: HCT-116)
2700

// map CN1CCN(Cc2ccc(C(=O)Nc3cccc(Nc4ccc5cc(O)ccc5n4)c3)cc2C(F)(F)F)CC1 [Compound 18a] to recorded GI50 (system: HCT-116)
3930

// map CN1CCCN(Cc2ccc(C(=O)Nc3cccc(Nc4ccc5cc(O)ccc5n4)c3)cc2C(F)(F)F)CC1 [Compound 18b] to recorded GI50 (system: HCT-116)
6510

###

Could you please report measured IC50 for the items listed next?
# system.under.test: B-RAF^V600E (Homo sapiens, UniProt P15056, V600E)
# Construct: purchased Reaction Biology Corporation (RBC), Kinase HotSpot service
# Sequence (P15056 whole entry V600E): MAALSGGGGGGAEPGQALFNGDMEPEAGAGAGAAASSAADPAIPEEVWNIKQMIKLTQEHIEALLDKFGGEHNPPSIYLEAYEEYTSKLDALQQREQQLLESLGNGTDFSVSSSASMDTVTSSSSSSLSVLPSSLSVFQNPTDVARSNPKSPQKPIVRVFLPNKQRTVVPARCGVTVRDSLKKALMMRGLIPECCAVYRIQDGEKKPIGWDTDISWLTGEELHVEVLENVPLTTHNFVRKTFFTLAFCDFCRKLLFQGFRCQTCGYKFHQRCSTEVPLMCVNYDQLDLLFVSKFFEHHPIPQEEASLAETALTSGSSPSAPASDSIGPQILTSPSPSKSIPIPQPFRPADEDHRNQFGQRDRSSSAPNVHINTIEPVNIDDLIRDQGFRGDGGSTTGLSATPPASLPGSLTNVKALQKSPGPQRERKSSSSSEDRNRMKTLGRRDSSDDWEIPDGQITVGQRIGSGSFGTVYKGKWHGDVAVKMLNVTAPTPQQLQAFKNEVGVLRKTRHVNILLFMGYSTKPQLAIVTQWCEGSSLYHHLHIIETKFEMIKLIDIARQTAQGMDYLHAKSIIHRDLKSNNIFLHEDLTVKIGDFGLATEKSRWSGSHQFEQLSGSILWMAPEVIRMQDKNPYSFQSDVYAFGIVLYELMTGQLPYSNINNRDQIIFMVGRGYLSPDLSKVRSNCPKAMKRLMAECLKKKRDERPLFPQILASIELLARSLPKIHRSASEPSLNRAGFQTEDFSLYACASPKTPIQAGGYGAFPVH
# protocol.summary: HotSpot kinase assay (RBC), B-RAF^V600E
# Assay type: biochemical
# experimental.parameters: 10 µM ATP, 10-dose singlicate IC50 mode
// note: answer is a bare numeric in µM

Endpoint output: IC50 of COc1cccc2nc(Nc3cccc(NC(=O)c4ccc(CN5CCCN(C)CC5)c(C(F)(F)F)c4)c3)ccc12 [Compound 14b] . Value?
0.355

Endpoint output: IC50 of COc1cccc2nc(Nc3ccc(F)c(NC(=O)c4ccc(CN5CCN(C)CC5)c(C(F)(F)F)c4)c3)ccc12 [Compound 15a] . Value?
0.314

Endpoint output: IC50 of CN1CCCN(Cc2ccc(C(=O)Nc3cccc(Nc4ccc5cc(O)ccc5n4)c3)cc2C(F)(F)F)CC1 [Compound 18b] . Value?
0.227

###

# System: HCT-15
# protocol.summary: NCI-60 five-dose SRB assay
# Format: cell-based
# experimental.parameters: Homo sapiens; HCT-15, Colon cancer, five-dose test
Kindly apply the following: y if GI50 is less than 2 µM, n in every other case.

Answer whether the compound COc1cccc2nc(Nc3cccc(NC(=O)c4ccc(CN5CCN(C)CC5)c(C(F)(F)F)c4)c3)ccc12 [Compound 14a] has GI50 strictly less than 2 µM
y

Answer whether the compound CN1CCCN(Cc2ccc(C(=O)Nc3cccc(Nc4ccc5c(O)cccc5n4)c3)cc2C(F)(F)F)CC1 [Compound 17b] has GI50 strictly less than 2 µM
y

Answer whether the compound CCN1CCN(Cc2ccc(C(=O)Nc3cccc(Nc4ccc5c(OC)cccc5n4)c3)cc2C(F)(F)F)CC1 [Compound 14c] has GI50 strictly less than 2 µM
y

Answer whether the compound CN1CCN(Cc2ccc(C(=O)Nc3cccc(Nc4ccc5cc(O)ccc5n4)c3)cc2C(F)(F)F)CC1 [Compound 18a] has GI50 strictly less than 2 µM
n

Answer whether the compound COc1cccc2nc(Nc3ccc(F)c(NC(=O)c4ccc(CN5CCN(C)CC5)c(C(F)(F)F)c4)c3)ccc12 [Compound 15a] has GI50 strictly less than 2 µM
n

Answer whether the compound COc1cccc2nc(Nc3cccc(NC(=O)c4ccc(CN5CCCN(C)CC5)c(C(F)(F)F)c4)c3)ccc12 [Compound 14b] has GI50 strictly less than 2 µM
y

Answer whether the compound CN1CCN(Cc2ccc(C(=O)Nc3cccc(Nc4ccc5c(O)cccc5n4)c3)cc2C(F)(F)F)CC1 [Compound 17a] has GI50 strictly less than 2 µM
y

Answer whether the compound CN1CCCN(Cc2ccc(C(=O)Nc3cccc(Nc4ccc5cc(O)ccc5n4)c3)cc2C(F)(F)F)CC1 [Compound 18b] has GI50 strictly less than 2 µM
n

Answer whether the compound COc1ccc2nc(Nc3cccc(NC(=O)c4ccc(CN5CCN(C)CC5)c(C(F)(F)F)c4)c3)ccc2c1 [Compound 16a] has GI50 strictly less than 2 µM
y
